# TEST SYSTEM: D(2) dopamine receptor (Homo sapiens)
# Sequence (P14416 whole entry): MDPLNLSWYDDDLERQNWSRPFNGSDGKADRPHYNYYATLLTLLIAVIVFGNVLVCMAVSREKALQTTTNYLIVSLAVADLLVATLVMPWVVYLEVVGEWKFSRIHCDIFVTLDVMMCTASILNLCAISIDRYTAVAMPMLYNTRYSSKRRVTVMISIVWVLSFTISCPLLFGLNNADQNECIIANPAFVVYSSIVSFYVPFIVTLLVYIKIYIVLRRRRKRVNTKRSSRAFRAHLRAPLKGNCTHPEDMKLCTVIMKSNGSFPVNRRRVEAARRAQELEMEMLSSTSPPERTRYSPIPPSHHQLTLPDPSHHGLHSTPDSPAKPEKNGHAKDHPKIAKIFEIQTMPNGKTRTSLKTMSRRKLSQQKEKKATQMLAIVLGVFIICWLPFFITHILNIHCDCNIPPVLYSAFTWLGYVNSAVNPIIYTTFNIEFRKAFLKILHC
# RUN DESCRIPTION: Inhibition of human dopamine D2 receptor
pKi: −log10 of the molar value.
MEASUREMENT LABEL: pKi

- COMPOUND: "Fc1ccc(N2CCN(CCC3OCCc4ccccc43)CC2)cc1 (stereo not drawn)"
  MEASUREMENT LABEL: "pKi"
  VALUE: 6.70
- COMPOUND: "NS(=O)(=O)c1ccc(N2CCN(CC[C@@H]3OCCc4ccccc43)CC2)cc1 [SONEPIPRAZOLE]"
  MEASUREMENT LABEL: "pKi"
  VALUE: 5.29
- COMPOUND: "c1ccc(CC[C@@H]2CN(Cc3nc4ccccc4[nH]3)CCO2)cc1"
  MEASUREMENT LABEL: "pKi"
  VALUE: 4.80
- COMPOUND: "c1ccc(OCC2CN(Cc3c[nH]c4ccccc34)CCO2)cc1 (stereo not drawn)"
  MEASUREMENT LABEL: "pKi"
  VALUE: 6.40
- COMPOUND: "c1ccc2c(c1)CC(CN1CCN(c3ccc4c(c3)OCCO4)CC1)C2"
  MEASUREMENT LABEL: "pKi"
  VALUE: 6.13

P: COc1ccc(Cl)cc1OC[C@@H]1CN(Cc2ccc(Cl)cc2)CCO1
Q: c1ccc(CCC2CN(Cc3c[nH]c4ccccc34)CCO2)cc1 (stereo not drawn)
// compare measured pKi, left P , right Q , return larger Please identify the chosen entry by its label.
P

----------
Lab note: Ki readings collected with D(1B) dopamine receptor (Homo sapiens, UniProt P21918) for the following molecules.
Sequence (P21918 whole entry): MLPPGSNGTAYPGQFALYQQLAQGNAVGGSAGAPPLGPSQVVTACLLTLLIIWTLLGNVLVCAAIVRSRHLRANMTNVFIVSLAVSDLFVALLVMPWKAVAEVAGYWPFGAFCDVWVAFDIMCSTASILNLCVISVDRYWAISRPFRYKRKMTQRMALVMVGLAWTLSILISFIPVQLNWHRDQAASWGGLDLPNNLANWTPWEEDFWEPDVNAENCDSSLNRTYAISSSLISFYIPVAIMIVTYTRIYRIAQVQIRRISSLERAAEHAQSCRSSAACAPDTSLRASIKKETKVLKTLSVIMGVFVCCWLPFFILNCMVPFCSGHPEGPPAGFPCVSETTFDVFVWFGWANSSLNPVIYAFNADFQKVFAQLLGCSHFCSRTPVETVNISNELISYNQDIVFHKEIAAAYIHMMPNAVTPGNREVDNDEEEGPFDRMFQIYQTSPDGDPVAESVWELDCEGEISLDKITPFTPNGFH

// worked examples, Ki included
- ITEM SMILES: "c1ccc2c(c1)CC(CN1CCN(c3ccc4c(c3)OCCO4)CC1)C2"
  VALUE: "> 3 µM"
- ITEM SMILES: "Cc1ccc(N2CCN(Cc3nc4ccccc4[nH]3)CC2)cc1C"
  VALUE: "> 8 µM"

Now look at this entry.
Request - read-out Ki | tested on D(1B) dopamine receptor (Homo sapiens, UniProt P21918) | molecule `CC(C)Oc1cccnc1N(C)C1CCN(Cc2ccc(I)cc2)CC1`
> 10 µM

----------
# TEST SYSTEM: Sigma non-opioid intracellular receptor 1 (Homo sapiens)
# Sequence (Q99720 whole entry): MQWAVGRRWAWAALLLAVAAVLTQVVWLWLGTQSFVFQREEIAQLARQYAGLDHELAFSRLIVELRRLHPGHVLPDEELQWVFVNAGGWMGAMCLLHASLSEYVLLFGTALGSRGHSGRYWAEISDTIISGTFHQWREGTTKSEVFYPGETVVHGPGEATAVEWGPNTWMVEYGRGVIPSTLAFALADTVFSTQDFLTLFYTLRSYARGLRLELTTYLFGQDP
# RUN DESCRIPTION: Inhibition of sigma1 receptor (unknown origin)
MEASUREMENT LABEL: Ki (nM)
Give the value in nM but do not write nM after it.

Quick one: Ki for `c1ccc2c(c1)CC(CN1CCN(c3ccc4c(c3)OCCO4)CC1)C2` ?
1.6

----------
# TEST SYSTEM: Alpha-2B adrenergic receptor (Homo sapiens, UniProt P18089)
# Sequence (P18089 whole entry): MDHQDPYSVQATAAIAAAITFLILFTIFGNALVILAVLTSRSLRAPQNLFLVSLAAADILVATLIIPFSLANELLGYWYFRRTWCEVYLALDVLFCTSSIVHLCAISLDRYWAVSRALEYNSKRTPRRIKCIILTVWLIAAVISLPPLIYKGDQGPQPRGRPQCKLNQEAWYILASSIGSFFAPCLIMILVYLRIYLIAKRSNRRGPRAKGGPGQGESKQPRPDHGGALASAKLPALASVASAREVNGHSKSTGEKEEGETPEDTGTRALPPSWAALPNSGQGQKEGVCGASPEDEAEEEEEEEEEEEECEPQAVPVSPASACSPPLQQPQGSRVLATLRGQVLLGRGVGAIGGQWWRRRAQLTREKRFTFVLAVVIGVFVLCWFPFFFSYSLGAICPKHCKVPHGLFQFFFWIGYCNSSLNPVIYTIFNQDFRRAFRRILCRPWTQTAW
MEASUREMENT LABEL: Ki (nM)
Give the value in nM but do not write nM after it.

Quick one: Ki for `O=C1COc2cc(CN3CCN(c4ccc(Cl)cc4)CC3)ccc2N1` ?
368
